system: UniProtKB O00329
Sequence (O00329 whole entry, looked up): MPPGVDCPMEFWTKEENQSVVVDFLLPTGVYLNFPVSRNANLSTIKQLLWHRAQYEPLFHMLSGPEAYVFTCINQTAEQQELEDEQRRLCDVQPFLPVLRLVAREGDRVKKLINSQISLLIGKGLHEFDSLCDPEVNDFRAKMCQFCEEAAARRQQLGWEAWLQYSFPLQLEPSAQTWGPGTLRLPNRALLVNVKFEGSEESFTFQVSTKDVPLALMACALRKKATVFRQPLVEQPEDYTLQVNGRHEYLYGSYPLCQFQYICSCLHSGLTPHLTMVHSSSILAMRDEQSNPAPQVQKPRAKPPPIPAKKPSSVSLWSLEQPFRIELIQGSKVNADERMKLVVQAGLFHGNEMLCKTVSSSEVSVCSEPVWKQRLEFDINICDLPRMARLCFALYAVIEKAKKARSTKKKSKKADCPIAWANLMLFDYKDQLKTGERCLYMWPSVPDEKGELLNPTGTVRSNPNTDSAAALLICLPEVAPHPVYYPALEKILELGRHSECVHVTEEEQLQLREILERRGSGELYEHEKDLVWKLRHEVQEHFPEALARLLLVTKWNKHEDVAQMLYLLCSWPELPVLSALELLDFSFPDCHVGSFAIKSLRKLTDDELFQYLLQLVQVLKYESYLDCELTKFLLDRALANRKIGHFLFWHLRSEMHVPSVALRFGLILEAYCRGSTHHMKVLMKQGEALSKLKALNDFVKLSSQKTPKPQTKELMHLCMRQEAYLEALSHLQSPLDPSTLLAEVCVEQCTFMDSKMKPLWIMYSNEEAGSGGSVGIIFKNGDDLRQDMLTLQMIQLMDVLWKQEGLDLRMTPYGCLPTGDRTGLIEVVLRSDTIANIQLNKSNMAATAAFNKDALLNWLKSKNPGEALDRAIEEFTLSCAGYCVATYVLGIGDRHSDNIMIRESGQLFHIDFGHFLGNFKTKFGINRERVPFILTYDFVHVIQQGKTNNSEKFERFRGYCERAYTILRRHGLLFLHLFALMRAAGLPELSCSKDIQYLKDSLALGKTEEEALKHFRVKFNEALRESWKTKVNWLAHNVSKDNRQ
protocol.text: Inhibition of PIK3CD Kinase Activity in Pfeiffer Cells
pIC50: −log10 of the molar value.
// reported pIC50 per item

INSERT INTO results (compound, value_kind, observed) VALUES
  ('Cc1csc2nc(C(C)Nc3ncnc4[nH]cnc34)c(-c3cscn3)c(=O)n12 (centres undefined)', 'pIC50', '7.00 to 7.30'),
  ('Cc1csc2nc(C(C)Nc3nc(F)nc4[nH]cnc34)c(-c3cc(F)cc(F)c3)c(=O)n12 (centres undefined)', 'pIC50', '7.00 to 7.30'),
  ('CCc1cccc2nc(C(C)Nc3nc(N)nc4[nH]cnc34)c(-c3cc(F)cc(F)c3)c(=O)n12 (centres undefined)', 'pIC50', '> 7.30');

// recorded pIC50 for Cc1cccc2nc(C(C)Nc3ncnc4[nH]cnc34)c(-c3cc(F)cc(F)c3)c(=O)n12 (centres undefined) : 7.00 to 7.30

// recorded pIC50 for Cc1csc2nc(C(C)Nc3ncnc4[nH]cnc34)c(-c3cccc(Cl)c3)c(=O)n12 (centres undefined) : 7.00 to 7.30

Where these numbers come from: the Kinase Knowledgebase extract (Sharma et al. 2016)
